src = the supplement of paper PMC10567573

# Test: protein stability index of a GFP-peptide fusion (GPS, HEK-293T) (PSI 1-6); higher = more stable;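 also: 24-mer peptide tiles fused after GFP, lentivirally expressed, FACS-sorted into six equal bins by GFP/DsRed ratio, decoded by Illumina sequencing, PSI is the read-weighted mean bin number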
# Conditions used: treatment: DMSO; c terminus: a fixed tail appended
Entries and their protein stability index values follow.
// response body must contain only the number

Illustrative cases are given below, each with its answer.
Entry sequence	protein stability index
ICEQAEYHMFQREKVEVQLPELFH [KCNAB2]	3.17
EGKTKKGVLEAPDTQVNPVGSVSV [FBXO34]	5.08
GLTKKRTKVQKKSLLLKKPLRVDL [NOP53]	3.25
GKLKWNLAAVTPHDFIEHILRKLP [CCND2]	2.61
KSLLPHLKTGNSSPGIGAVYLANQ [RTP4]	2.71
CMDQERLRRESTSQKEMDKAETKT [FCHO1]	5.15
EEDCAWSQELPPPDPGPSPEASHL [ZNF263]	5.44
ISLNMCLLGALVLLGLGVLLFSGG [PBXIP1]	2.03
EQVNFCESSNDFGPYEGGGPVAGL [ZBTB22]	4.3
KELCAMSEEQFRQRSPLGGDVLHA [SPDEF]	3.88

Item under review: AVYLMTFLIVTVAWAAHTRLFQVV [TMEM175] . Reported protein stability index? 3.17

Item NEVRRGSPVLLGWVEQAYADKCVC [TIAF1] has what recorded protein stability index? 2.64

Sample EGDVLDTLEALGYKGPLLEEQALT [FAM98B] — what was its protein stability index? 4.36

---

# Test: protein stability index of a GFP-peptide fusion (GPS, HEK-293T) (PSI 1-6); higher = more stable
# Conditions used: treatment: DMSO; c terminus: a fixed tail appended
Listed here are sequences together with their documented protein stability index.

Entry sequence	Value type	Reading
VAFLEQRASALLASCSKNCTNSPA [FBXO34]	protein stability index	2.9
IKPENILITKQGIIKICDFGFAQI [CDKL4]	protein stability index	2.18
WEKKPFSEDVNWGYEKRNLARVPK [CHGB]	protein stability index	3.38
HVRQGVFSSLNHIVEKRVLAHLAP [INTS3]	protein stability index	2.32

Look up protein stability index for this sequence: LNERKQASAIKKEELVARSETHAA [CHGB] 5.48

Field request: protein stability index | item: LYFQWYIFYFVIQRKKWVDLAWMI [FADS1] 2.25

Request the reported protein stability index associated with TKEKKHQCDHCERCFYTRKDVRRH [PLAGL1] 3.69

---

A collection of sequences and their measured protein stability index
# Test: protein stability index of a GFP-peptide fusion (GPS, HEK-293T) (PSI 1-6); higher = more stable
# Conditions used: treatment: MLN4924 1 uM, 8 h; c terminus: a fixed tail appended
Kindly provide the number alone.

State the recorded protein stability index for this entry: FLVVREPPRGAVERHSDLPPLNPT [SPNS1] 3.09

// lookup protein stability index for IVISPFRLEELTNRLASLQQENKV [CCDC6] 2.4

GET /values?readout=protein stability index&item= FRFTYYTILDIFRFALRFIRPDPR [FAF2] 2.47

Data request, read-out protein stability index, for RDEHRARAMKIPFTNDKIINLPVE [NFE2L1] 3.95

Look up protein stability index for this sequence: PPKRMLGADREFIEARRRALKRFV [SNX8] 3.62

Which protein stability index is reported for this sequence? KIKKSPLTICYPEYAGSNTYEEAA [GNAI1] 3.91

Data request, read-out protein stability index, for EGSRSSGSNRSGSDRRKEKDPKAG [DVL3] 5.5

// protein stability index lookup, key: PQESAILQLFHQDGTFSPVTLALF [CLCN6] 2.42

Please report the recorded protein stability index for WLLNNLMTHQNVELFKELSINVMK [GMCL1] . 2.08

May I ask what protein stability index has been recorded for IHGTLHLERLAYLHARLRELLCEL [PRAME] ? 2.06

So what's the measured protein stability index for this one? HFDLRDDDDAEEEGPKRELGVRRP [TCF25] 5.24

// returns reported protein stability index for input VNSYYSSPAQQVPKNPALEAFLAQ [TOR1AIP2] 3.66

Entry under review: VASEMRFVQDLVRALEQEKLQGVE [DAPK3] . Reported protein stability index? 4.73

Which protein stability index is listed for PDGVCLSGGRGPQGDKAIREQGPR [PBXIP1] ? 4.88

---

Items are presented alongside their recorded protein stability index.
# Test: protein stability index of a GFP-peptide fusion (GPS, HEK-293T) (PSI 1-6); higher = more stable
# Conditions used: treatment: MLN4924 1 uM, 8 h; c terminus: a fixed tail appended
Please respond with just the number, no unit label.

Entry sequence	protein stability index
AAWKGRVLLPETQKRQQLSEDTLT [C22orf31]	3.84

What value of protein stability index has been recorded for this entry: GYSWSMGAYKSSTICYCPEKGTWT [KLHL14] 2.08

What does the record list as protein stability index for ENIAWVKSYNICFELEDSNEIFTQ [PDS5B] ? 2.53

What value of protein stability index has been recorded for this entry: ALDNESWGFVHPRLLSVPELCHHV [RETREG3] 2.46

protein stability index for SNFPRQYFALRKILKQLIADVTLD [TRIM39] ? 2.19

Given MGIVNLNIHMNFTHICRSHNSINQ [SLC2A12] , state its recorded protein stability index. 2.9

---

Quick reference for protein stability index among some sequences
# Test: protein stability index of a GFP-peptide fusion (GPS, HEK-293T) (PSI 1-6); higher = more stable
# Conditions used: treatment: MLN4924 1 uM, 8 h; c terminus: a fixed tail appended
A bare number is all that is needed in reply.

Examples with answers:
Entry sequence	protein stability index
LARGPLNQTALHLAAAHGHSEVVE [RIPK4]	4.55
EVGSMKIQSGAWVCYQYPGYRGYQ [CRYBA1]	2.32

Name the reported protein stability index value associated with the sequence GSLCSLWFGASVLSLLELLELLLD [SCNN1D] 1.91

Entry RRSFLNAHHRSGAQVFPESPESES [GNAS] : reported protein stability index = ? 5.03

// returns reported protein stability index for input ASHTVGFTPPTSLTRAGMSYYNSP [CCDC6] 3.18

---

# Test: protein stability index of a GFP-peptide fusion (GPS, HEK-293T) (PSI 1-6); higher = more stable
# Conditions used: treatment: DMSO; c terminus: a fixed tail appended
Please mark Criterion met if the recorded protein stability index is equal to or greater than 4, and Criterion not met if it falls below.

Entry sequence	Group
VEDLVDSLKLALLFYILTFVGAIF [RTN2]	Criterion not met
ALEFQPQLVLVAAGFDALQGDPKG [HDAC6]	Criterion not met
IHGTLHLERLAYLHARLRELLCEL [PRAME]	Criterion not met
TINPLWHIRHLGWNPDARYSEHFL [GLT8D2]	Criterion not met
IPVLYCMVFIAGILLNGVSGWIFF [P2RY14]	Criterion not met

Say whether KVCLLGDTGVGKSSIVWRFVEDSF [RAB22A] shows protein stability index of 4 or more. Criterion not met

Entry SSSQEIPTMPQPIEKVSVSTQTKK [ZMYND11] : is its protein stability index no less than 4? Criterion met

Has VAVLLLFLVVREPPRGAVERHSDL [SPNS1] a recorded protein stability index greater than or equal to 4? Criterion not met

Could you verify whether the entry VLERGDSAPATAKENAAAPSPVRA [PALM] shows protein stability index of no less than 4? Criterion met

Evaluate YNDGVINLLEKFFEMKKGQCKDAL [SNAP91] : protein stability index at minimum 4? Criterion not met

Reported protein stability index reaches at least 4 for SQAIDLLYWRDIKQTGIVFGSFLL [RTN1] ? Criterion not met

// inclusive: protein stability index at least 4? input: VLTKKFQVTMRGLLSCLSKSNNRL [FBXO39] Criterion not met

protein stability index >= 4 for WLLNNLMTHQNVELFKELSINVMK [GMCL1] ? Criterion not met

---

# Test: protein stability index of a GFP-peptide fusion (GPS, HEK-293T) (PSI 1-6); higher = more stable
# Conditions used: treatment: DMSO; c terminus: a fixed tail appended
Returns one of True or False; True when protein stability index is >= 3.

Examples from the recorded data:
Entry sequence	Group
PAVEACENRRKVLYQRAPRNIHRH [TCF25]	True
NPGTDAVAQTSLEEFNVLEMEVMR [FATE1]	True

Item SLQQQHQADLELIESAHRSRIKVL [FBF1] with protein stability index of 3 or above? True

In plain terms: is recorded protein stability index at least 3 for AAHLKLTSIEEGYERSFIHKIKHK [IQUB] ? True

Determine whether measured protein stability index meets or exceeds 3 for ARLQEPVTFRDVAVDFTQEEWGQL [ZNF8] True

Please tell me: is the sequence AESFPGSQVMGSGRGSLSSGGQTS [PLEKHN1] at or over 3 in terms of protein stability index? True

Does protein stability index meet or surpass 3 for PVVGSTRRLYEKKIFEYETQRRRL [EMD] ? True

Answer whether protein stability index of GGDGSGCSKQSGSFRKFRYGYNNV [ADAMTS4] is greater than or equal to 3. True

Check the entry HRNLSQLPNFAFSVPLAYFLLSQQ [TCF25] : does protein stability index equal or exceed 3? False

In plain terms: is recorded protein stability index at least 3 for SMQAVLDYLYTKQLSPNLDLDPLE [RHOBTB1] ? False
